Would you mind telling me the reported phytotoxicity, Oryza sativa of each entry?
- Tested on: Oryza sativa
- measurementDescription: Paddy herbicidal activity test, phytotoxicity to transplanted rice
- Assay type: in vivo
- testConditions: 5 g a.i./10 a; rice transplanted in 2.0 leaf stage; 30 days
- Method: 1. […] Evaluation of herbicidal efficacy was carried out by comparing growth inhibition rate (%) with an untreated group, while evaluation of phytotoxicity was carried out by comparing growth inhibition rate (%) with the state of a complete eradication group, and were evaluated at 11 levels indicated below.

Exercise: Checklist item: phytotoxicity, Oryza sativa tested on Oryza sativa, entry `N#Cc1cnn(-c2nn3c(c2Cl)CCCC3)c1N=Cc1cccnc1` , value?
Solution: 1 (10% to less than 20%)

Exercise: Try N#Cc1cnn(-c2nn3c(c2Br)CCCC3)c1/C=C/c1ccccn1 [Compound 3.44, reference compound] next.
Solution: 1 (10% to less than 20%)

Exercise: Try `COC=Nc1c(C#N)cnn1-c1nn2c(c1Cl)CCCC2` next.
Solution: 1 (10% to less than 20%)

Exercise: Try `N#Cc1cnn(-c2nn3c(c2Cl)CCCC3)c1N=Cc1ccncc1` next.
Solution: 1 (10% to less than 20%)

Exercise: Try N#Cc1cnn(-c2nn3c(c2Cl)CCCC3)c1/C=C/c1ccccn1 [Compound 3.43, reference compound] next.
Solution: 2 (20% to less than 30%)

Exercise: Try N#Cc1cnn(-c2nn3c(c2Cl)CCCC3)c1/C=C/c1ncccn1 [Compound 3.39, reference compound] next.
Solution: 1 (10% to less than 20%)

---

Would you mind telling me the reported herbicidal efficacy, Scirpus juncoides of each entry?
- System: Scirpus juncoides
- measurementDescription: Paddy herbicidal activity test
- Type: in vivo
- testConditions: 1 g a.i./10 a; irrigated pot; 30 days

Exercise: Give the measured herbicidal efficacy, Scirpus juncoides of `N#Cc1cnn(-c2nn3c(c2Cl)CCCC3)c1N=CC1CCCCC1` .
Solution: 9 (90% to less than 100%)

Exercise: Try `COC=Nc1c(C#N)cnn1-c1nn2c(c1Cl)CCCC2` next.
Solution: 9 (90% to less than 100%)

---

- Test system: Amaranthus retroflexus
- measurementDescription: Weed foliar treatment test (Test 3, 1.0 to 2.0 leaf stage)
- Type: in vivo
- testConditions: 5 g a.i./10 a; foliar spray at 1.0 to 2.0 leaf stage of Digitaria ciliaris; 3 weeks
reportedMetric: herbicidal efficacy, Amaranthus retroflexus

Exercise: Checklist item: herbicidal efficacy, Amaranthus retroflexus tested on Amaranthus retroflexus, entry N#Cc1cnn(-c2nn3c(c2Cl)CCCC3)c1/C=C/c1ncccn1 [Compound 3.39, reference compound] , value?
Solution: 1 (10% to less than 20%)

Exercise: Try `N#Cc1cnn(-c2nn3c(c2Cl)CCCC3)c1N=Cc1ccncc1` next.
Solution: 9 (90% to less than 100%)

Exercise: Try `COC=Nc1c(C#N)cnn1-c1nn2c(c1Cl)CCCC2` next.
Solution: 9 (90% to less than 100%)

Exercise: Try `N#Cc1cnn(-c2nn3c(c2Cl)CCCC3)c1N=CC1CCCCC1` next.
Solution: 10 (100%)

Exercise: Try `CC(=Nc1c(C#N)cnn1-c1nn2c(c1Cl)CCCC2)c1ccc[nH]1` next.
Solution: 9 (90% to less than 100%)

---

- System: Digitaria ciliaris
- measurementDescription: Weed foliar treatment test (Test 4, 4.0 to 5.0 leaf stage)
- Format: in vivo
- testConditions: 10 g a.i./10 a; foliar spray at 4.0 to 5.0 leaf stage of Digitaria ciliaris (plant height 10 cm to 15 cm); 20 days
reportedMetric: herbicidal efficacy, Digitaria ciliaris

Exercise: Give the measured herbicidal efficacy, Digitaria ciliaris of N#Cc1cnn(-c2nn3c(c2Cl)CCCC3)c1/C=C/c1ncccn1 [Compound 3.39, reference compound] .
Solution: 2 (20% to less than 30%)

Exercise: Try N#Cc1cnn(-c2nn3c(c2Cl)CCCC3)c1N=Cc1cccnc1 [Compound 22] next.
Solution: 9 (90% to less than 100%)

Exercise: Try CCOC=Nc1c(C#N)cnn1-c1nn2c(c1Cl)CCCC2 [Compound 34] next.
Solution: 9 (90% to less than 100%)

Exercise: Try N#Cc1cnn(-c2nn3c(c2Cl)CCCC3)c1N=Cc1ccoc1 [Compound 32] next.
Solution: 10 (100%)

Exercise: Try N#Cc1cnn(-c2nn3c(c2Cl)CCCC3)c1N=Cc1ccc(Cl)cc1 [Compound 20] next.
Solution: 10 (100%)

Exercise: Try N#Cc1cnn(-c2nn3c(c2Cl)CCCC3)c1N=Cc1ccsc1 [Compound 31] next.
Solution: 10 (100%)

Exercise: Try COC=Nc1c(C#N)cnn1-c1nn2c(c1Cl)CCCC2 [Compound 33] next.
Solution: 9 (90% to less than 100%)

Exercise: Try N#Cc1cnn(-c2nn3c(c2Cl)CCCC3)c1N=Cc1ccccn1 [Compound 21] next.
Solution: 10 (100%)

Exercise: Try N#Cc1cnn(-c2nn3c(c2Cl)CCCC3)c1N=Cc1ccccc1F [Compound 13] next.
Solution: 10 (100%)

Exercise: Try CCCCOC=Nc1c(C#N)cnn1-c1nn2c(c1Cl)CCCC2 [Compound 37] next.
Solution: 10 (100%)

Exercise: Try N#Cc1cnn(-c2nn3c(c2Cl)CCCC3)c1N=Cc1ccncc1 [Compound 23] next.
Solution: 9 (90% to less than 100%)

Exercise: Try N#Cc1cnn(-c2nn3c(c2Cl)CCCC3)c1N=C1CCCC1 [Compound 8] next.
Solution: 10 (100%)

Exercise: Try CC(=Nc1c(C#N)cnn1-c1nn2c(c1Cl)CCCC2)c1cccnc1 [Compound 25] next.
Solution: 10 (100%)

Exercise: Try N#Cc1cnn(-c2nn3c(c2Cl)CCCC3)c1N=Cc1ccccc1OC(F)F [Compound 12] next.
Solution: 10 (100%)

Exercise: Try N#Cc1cnn(-c2nn3c(c2Cl)CCCC3)c1N=Cc1ccc(C(F)(F)F)cc1 [Compound 19] next.
Solution: 10 (100%)

Exercise: Try Cc1ccc(C=Nc2c(C#N)cnn2-c2nn3c(c2Cl)CCCC3)cc1 [Compound 18] next.
Solution: 10 (100%)

Exercise: Try CC(C)OC=Nc1c(C#N)cnn1-c1nn2c(c1Cl)CCCC2 [Compound 36] next.
Solution: 10 (100%)

Exercise: Try CC(=Nc1c(C#N)cnn1-c1nn2c(c1Cl)CCCC2)c1ccccn1 [Compound 24] next.
Solution: 10 (100%)

Exercise: Try N#Cc1cnn(-c2nn3c(c2Cl)CCCC3)c1N=Cc1ccc[nH]1 [Compound 28] next.
Solution: 10 (100%)

---

Would you mind telling me the reported herbicidal efficacy, Scirpus juncoides of each entry?
- System: Scirpus juncoides
- measurementDescription: Paddy herbicidal activity test
- Format: in vivo
- testConditions: 1 g a.i./10 a; irrigated pot; 30 days
- Method: 1. […] Evaluation of herbicidal efficacy was carried out by comparing growth inhibition rate (%) with an untreated group, while evaluation of phytotoxicity was carried out by comparing growth inhibition rate (%) with the state of a complete eradication group, and were evaluated at 11 levels indicated below.

Exercise: Give the measured herbicidal efficacy, Scirpus juncoides of `N#Cc1cnn(-c2nn3c(c2Cl)CCCC3)c1N=Cc1ccncc1` .
Solution: 10 (100%)

Exercise: Try `N#Cc1cnn(-c2nn3c(c2Cl)CCCC3)c1N=Cc1cccnc1` next.
Solution: 10 (100%)

---

- Test system: Chenopodium album
- measurementDescription: Weed foliar treatment test (Test 3, 1.0 to 2.0 leaf stage)
- Type: in vivo
- testConditions: 10 g a.i./10 a; foliar spray at 1.0 to 2.0 leaf stage of Digitaria ciliaris; 3 weeks
reportedMetric: herbicidal efficacy, Chenopodium album

Exercise: Give the measured herbicidal efficacy, Chenopodium album of `CC(=Nc1c(C#N)cnn1-c1nn2c(c1Cl)CCCC2)c1ccc[nH]1` .
Solution: 10 (100%)

Exercise: Try N#Cc1cnn(-c2nn3c(c2Br)CCCC3)c1/C=C/c1ccccn1 [Compound 3.44, reference compound] next.
Solution: 2 (20% to less than 30%)

Exercise: Try N#Cc1cnn(-c2nn3c(c2Cl)CCCC3)c1/C=C/c1ccccn1 [Compound 3.43, reference compound] next.
Solution: 4 (40% to less than 50%)

Exercise: Try N#Cc1cnn(-c2nn3c(c2Cl)CCCC3)c1/C=C/c1ncccn1 [Compound 3.39, reference compound] next.
Solution: 5 (50% to less than 60%)

Exercise: Try `N#Cc1cnn(-c2nn3c(c2Cl)CCCC3)c1N=CC1CCCCC1` next.
Solution: 10 (100%)

Exercise: Try `COC=Nc1c(C#N)cnn1-c1nn2c(c1Cl)CCCC2` next.
Solution: 10 (100%)

Exercise: Try `N#Cc1cnn(-c2nn3c(c2Cl)CCCC3)c1N=Cc1ccncc1` next.
Solution: 10 (100%)
